From: the supplement of paper PMC10627819

Listed below: Bliss interaction score values for each entry.
System: B. subtilis 168
Assay: Bliss interaction score (quartile over a dose matrix) (fitness difference); higher = more antagonism (negative = synergy)
The response must contain the number and no unit.

- Molecule: "CC(=O)Oc1ccccc1C(=O)O [Acetylsalicylicacid] + Cn1nnc(-c2ccc(-c3ccc(N4C[C@H](CO)OC4=O)cc3F)cn2)n1 [Tedizolid]"
  Bliss interaction score: -0.184

So for C[C@H]1c2cccc(O)c2C(=O)C2=C(O)[C@]3(O)C(=O)C(C(N)=O)=C(O)[C@@H](N(C)C)[C@@H]3[C@@H](O)[C@@H]21 [Doxycycline] + CN(N=O)C(=O)N[C@@H](C=O)[C@@H](O)[C@H](O)[C@H](O)CO [Streptozotocin] , the logged Bliss interaction score turned out to be 0.0094

---

System: S. aureus Newman
Experiment: Bliss interaction score (quartile over a dose matrix) (fitness difference); higher = more antagonism (negative = synergy)
Measurement label: Bliss interaction score

Solved entries:
- Molecule: "C[C@H]1c2cccc(O)c2C(=O)C2=C(O)[C@]3(O)C(=O)C(C(N)=O)=C(O)[C@@H](N(C)C)[C@@H]3[C@@H](O)[C@@H]21 [Doxycycline] + O=C1CN(/N=C/c2ccc([N+](=O)[O-])o2)C(=O)N1 [Nitrofurantoin]"
  Target entity: "S. aureus Newman"
  Bliss interaction score: -0.0329
- Molecule: "CO/N=C(\\C(=O)N[C@@H]1C(=O)N2C(C(=O)O)=C(COC(N)=O)CS[C@H]12)c1ccco1 [Cefuroxime] + CN[C@@H]1[C@H](O)[C@H](NC)[C@H]2O[C@@]3(O)C(=O)C[C@@H](C)O[C@H]3O[C@@H]2[C@H]1O [Spectinomycin]"
  Target entity: "S. aureus Newman"
  Bliss interaction score: 0.127

Notebook: COc1ccc(C[C@H](N)C(=O)N[C@H]2[C@@H](O)[C@H](n3cnc4c(N(C)C)ncnc43)O[C@@H]2CO)cc1 [Puromycin] + CN[C@@H]1[C@H](O[C@H]2[C@H](O[C@H]3[C@H](O)[C@@H](O)[C@H](N=C(N)N)[C@@H](O)[C@@H]3N=C(N)N)O[C@@H](C)[C@]2(O)C=O)O[C@@H](CO)[C@H](O)[C@H]1O [Streptomycin] , Bliss interaction score read as 0.0431

Form field Bliss interaction score, entry O=C(O)c1cn(C2CC2)c2cc(N3CCNCC3)c(F)cc2c1=O [Ciprofloxacin] + Oc1cc(Cl)ccc1Oc1ccc(Cl)cc1Cl [Triclosan] : -0.0217

---

System: S. aureus Newman
Assay: fitness (endpoint OD595 vs no drug) (fraction); higher = more growth
Details: first compound 3.124 µg/mL; partner 0.0625 µg/mL
Measurement label: fitness

Recorded results for 3 compounds are shown here.
- Compound: "C[C@@H]1O[C@@H]1P(=O)(O)O [Fosfomycin] + CO[C@@]12[C@H](COC(N)=O)C3=C(C(=O)C(C)=C(N)C3=O)N1C[C@@H]1N[C@@H]12 [Mitomycin C]"
  Target entity: "S. aureus Newman"
  Measurement label: "fitness"
  Reported: 0.0142
- Compound: "C[C@@H]1O[C@@H]1P(=O)(O)O [Fosfomycin] + Cn1nnc(-c2ccc(-c3ccc(N4C[C@H](CO)OC4=O)cc3F)cn2)n1 [Tedizolid]"
  Target entity: "S. aureus Newman"
  Measurement label: "fitness"
  Reported: 0.106
- Compound: "Cc1ncc([N+](=O)[O-])n1CCO [Metronidazole] + Cn1nnc(-c2ccc(-c3ccc(N4C[C@H](CO)OC4=O)cc3F)cn2)n1"
  Target entity: "S. aureus Newman"
  Measurement label: "fitness"
  Reported: 0.957

With those in mind, consider the next compound.
// C[C@@H]1O[C@@H]1P(=O)(O)O [Fosfomycin] + CC1=C\[C@@H](O)CC(=O)Cc2nc(co2)C(=O)N2CCC=C2C(=O)O[C@H](C(C)C)[C@H](C)/C=C/C(=O)NC\C=C\1 [Virginiamycin M1] : fitness value = 0.173

---

System: B. subtilis 168
Experiment: Bliss interaction score (quartile over a dose matrix) (fitness difference); higher = more antagonism (negative = synergy)
Measurement label: Bliss interaction score
Respond with the number and no other words.

- Molecule: "CN(C)[C@@H]1C(O)=C(C(N)=O)C(=O)[C@@]2(O)C(O)=C3C(=O)c4c(O)ccc(Cl)c4[C@@](C)(O)[C@H]3C[C@@H]12 [Clortetracycline] + Oc1cc(Cl)ccc1Oc1ccc(Cl)cc1Cl [Triclosan]"
  Reported: 0.0578

Entry C[C@@H]1O[C@@H]1P(=O)(O)O [Fosfomycin] + CO[C@H]1/C=C/O[C@@]2(C)Oc3c(C)c(O)c4c(O)c(c(/C=N/N5CCN(C)CC5)c(O)c4c3C2=O)NC(=O)/C(C)=C\C=C\[C@H](C)[C@H](O)[C@@H](C)[C@@H](O)[C@@H](C)[C@H](OC(C)=O)[C@@H]1C [Rifampicin] ; Bliss interaction score = -0.0436

// Bliss interaction score value for Cc1ncc([N+](=O)[O-])n1CCO [Metronidazole] + CN(C)c1cc(NC(=O)CNC(C)(C)C)c(O)c2c1C[C@H]1C[C@H]3[C@H](N(C)C)C(O)=C(C(N)=O)C(=O)[C@@]3(O)C(O)=C1C2=O [Tigecycline] : -0.0624

GET /value?item= C[C@H]1c2cccc(O)c2C(=O)C2=C(O)[C@]3(O)C(=O)C(C(N)=O)=C(O)[C@@H](N(C)C)[C@@H]3[C@@H](O)[C@@H]21 [Doxycycline] + Cc1onc(-c2ccccc2)c1C(=O)N[C@@H]1C(=O)N2[C@@H]1SC(C)(C)[C@@H]2C(=O)O [Oxacillin] &field=Bliss interaction score returns 0.0493

---

Tested on: B. subtilis 168
Experiment: Bliss interaction score (quartile over a dose matrix) (fitness difference); higher = more antagonism (negative = synergy)
Bliss interaction score listing for selected molecules.
Reply with the value as a number alone.

- Molecule: "N#CC(C#N)=NNc1cccc(Cl)c1 [CCCP] + COc1c(N2C[C@@H]3CCCN[C@@H]3C2)c(F)cc2c(=O)c(C(=O)O)cn(C3CC3)c12 [Moxifloxacin]"
  Target entity: "B. subtilis 168"
  Reported: 0.0233
- Molecule: "CN(C)[C@@H]1C(O)=C(C(N)=O)C(=O)[C@@]2(O)C(O)=C3C(=O)c4c(O)ccc(Cl)c4[C@@](C)(O)[C@H]3C[C@@H]12 [Clortetracycline] + Clc1ccc(COC(Cn2ccnc2)c2ccc(Cl)cc2Cl)c(Cl)c1 [Miconazole]"
  Target entity: "B. subtilis 168"
  Reported: 0.0788
- Molecule: "COc1ccc(C[C@H](N)C(=O)N[C@H]2[C@@H](O)[C@H](n3cnc4c(N(C)C)ncnc43)O[C@@H]2CO)cc1 [Puromycin] + CN[C@@H]1[C@H](O)[C@H](NC)[C@H]2O[C@@]3(O)C(=O)C[C@@H](C)O[C@H]3O[C@@H]2[C@H]1O [Spectinomycin]"
  Target entity: "B. subtilis 168"
  Reported: 0.0392
- Molecule: "CO/N=C(\\C(=O)N[C@@H]1C(=O)N2C(C(=O)O)=C(COC(N)=O)CS[C@H]12)c1ccco1 [Cefuroxime] + CN[C@@H]1[C@H](O[C@H]2[C@H](O[C@H]3[C@H](O)[C@@H](O)[C@H](N=C(N)N)[C@@H](O)[C@@H]3N=C(N)N)O[C@@H](C)[C@]2(O)C=O)O[C@@H](CO)[C@H](O)[C@H]1O [Streptomycin]"
  Target entity: "B. subtilis 168"
  Reported: -0.123
- Molecule: "O=C(O)c1cn(C2CC2)c2cc(N3CCNCC3)c(F)cc2c1=O [Ciprofloxacin] + COc1cc(Cc2cnc(N)nc2N)cc(OC)c1OC [Trimethoprim]"
  Target entity: "B. subtilis 168"
  Reported: 0.135

Just so you know, measured Bliss interaction score for CO/N=C(\C(=O)N[C@@H]1C(=O)N2C(C(=O)O)=C(COC(C)=O)CS[C@H]12)c1csc(N)n1 [Cefotaxime] + CN(C)[C@@H]1C(O)=C(C(N)=O)C(=O)[C@@]2(O)C(O)=C3C(=O)c4c(O)ccc(Cl)c4[C@@](C)(O)[C@H]3C[C@@H]12 [Clortetracycline] came out at 0.0481

Entry CN(C)[C@@H]1C(O)=C(C(N)=O)C(=O)[C@@]2(O)C(O)=C3C(=O)c4c(O)ccc(Cl)c4[C@@](C)(O)[C@H]3C[C@@H]12 [Clortetracycline] + COc1cc(Cc2cnc(N)nc2N)cc(OC)c1OC [Trimethoprim] ; Bliss interaction score = 0.135

The recorded Bliss interaction score for entry COc1ccc(C[C@H](N)C(=O)N[C@H]2[C@@H](O)[C@H](n3cnc4c(N(C)C)ncnc43)O[C@@H]2CO)cc1 [Puromycin] + CN[C@H](CC(C)C)C(=O)N[C@H]1C(=O)N[C@@H](CC(N)=O)C(=O)N[C@H]2C(=O)N[C@H]3C(=O)N[C@H](C(=O)N[C@H](C(=O)O)c4cc(O)cc(O)c4-c4cc3ccc4O)[C@H](O)c3ccc(c(Cl)c3)Oc3cc2cc(c3O[C@@H]2O[C@H](CO)[C@@H](O)[C@H](O)[C@H]2O[C@H]2C[C@](C)(N)[C@H](O)[C@H](C)O2)Oc2ccc(cc2Cl)[C@H]1O [Vancomycin] equals -0.0411

For CO/N=C(\C(=O)N[C@@H]1C(=O)N2C(C(=O)O)=C(COC(N)=O)CS[C@H]12)c1ccco1 [Cefuroxime] + CC[C@H]1OC(=O)[C@H](C)[C@@H](O[C@H]2C[C@@](C)(OC)[C@@H](O)[C@H](C)O2)[C@H](C)[C@@H](O[C@@H]2O[C@H](C)C[C@H](N(C)C)[C@H]2O)[C@](C)(OC)C[C@@H](C)C(=O)[C@H](C)[C@@H](O)[C@]1(C)O [Clarithromycin] the molecule record lists Bliss interaction score as -0.0354

Form: molecule = CC(=O)Oc1ccccc1C(=O)O [Acetylsalicylicacid] + CN(C)c1cc(NC(=O)CNC(C)(C)C)c(O)c2c1C[C@H]1C[C@H]3[C@H](N(C)C)C(O)=C(C(N)=O)C(=O)[C@@]3(O)C(O)=C1C2=O [Tigecycline] ; Bliss interaction score = -0.11

For reference, reported Bliss interaction score for CC(=O)Oc1ccccc1C(=O)O [Acetylsalicylicacid] + CN(C)C(=O)C(CCN1CCC(O)(c2ccc(Cl)cc2)CC1)(c1ccccc1)c1ccccc1 [Loperamide] stands at 0.0636

For reference, reported Bliss interaction score for CO/N=C(\C(=O)N[C@@H]1C(=O)N2C(C(=O)O)=C(COC(N)=O)CS[C@H]12)c1ccco1 [Cefuroxime] + O=C(O)c1cn(C2CC2)c2cc(N3CCNCC3)c(F)cc2c1=O [Ciprofloxacin] stands at -0.171

Measured Bliss interaction score, C[C@H]1c2cccc(O)c2C(=O)C2=C(O)[C@]3(O)C(=O)C(C(N)=O)=C(O)[C@@H](N(C)C)[C@@H]3[C@@H](O)[C@@H]21 [Doxycycline] + COc1cc(Cc2cnc(N)nc2N)cc(OC)c1OC [Trimethoprim] : 0.0804

// Bliss interaction score value for CC(=O)Oc1ccccc1C(=O)O [Acetylsalicylicacid] + CN(C)[C@@H]1C(O)=C(C(N)=O)C(=O)[C@@]2(O)C(O)=C3C(=O)c4c(O)ccc(Cl)c4[C@@](C)(O)[C@H]3C[C@@H]12 [Clortetracycline] : -0.311

Bliss interaction score reported for this molecule CC(=O)Oc1ccccc1C(=O)O [Acetylsalicylicacid] + CCP(CC)CC.CC(=O)OC[C@@H]1[C@H]([C@@H]([C@H]([C@@H](O1)[S-])OC(=O)C)OC(=O)C)OC(=O)C.[Au+] [Auranofin] : 0.0526
